Test system: MIWI (PIWIL1) piRISC loaded with L1MC piRNA (30 nt);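 note: 1 nM active piRISC with 0.1 nM target library at 33 °C single turnover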
TEST_METHOD_NOTES: pre-steady-state target cleavage rate (min^-1); higher = faster piRNA-guided slicing of the target
EXPERIMENTAL_CONTEXT: guide: L1MC piRNA 5'p-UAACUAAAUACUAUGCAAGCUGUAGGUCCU; auxiliary factor: none (no GTSF1)
The full ranking holds about 8,200 sequences; the median of “pre-steady-state target cleavage rate” is about 0.024, and the highest 2% start at about 1.3. The list comes from a sample in which the highest values are over-represented; it also holds close analogues and randomly drawn sequences.
pre-steady-state target cleavage rate values by entry

# RESIDUE_SEQUENCE, pre-steady-state target cleavage rate
data = [
    ("UCGACGUACAGCUUGGAUAGUAUUUAGUUA", 0.0503),
    ("AGGACGUACAGCUUGGAUAGUAUUUAGUUA", 0.0579),
    ("AGGAGCUACAGCUUGGAUAGUAUUUAGUUA", 0.0558),
    ("UCCUCCUACAGCUUGCAUAGUAUUGUAGUUA", 0.00959),
]

----------
Entries and their pre-steady-state target cleavage rate values follow.
System: MIWI (PIWIL1) piRISC loaded with L1MC piRNA (30 nt);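 note: 1 nM active piRISC with 0.1 nM target library at 33 °C single turnover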
TEST_METHOD_NOTES: pre-steady-state target cleavage rate (min^-1); MIWI and MILI are mouse PIWI proteins and EfPiwi is from a freshwater sponge; tags in brackets are library labels; higher = faster piRNA-guided slicing of the target;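 note: 1 nM active piRISC with 0.1 nM target library at 33 °C single turnover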
EXPERIMENTAL_CONTEXT: guide: L1MC piRNA 5'p-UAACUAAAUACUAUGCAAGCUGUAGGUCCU; auxiliary factor: none (no GTSF1)
The full ranking holds about 8,200 sequences; the median of “pre-steady-state target cleavage rate” is about 0.024, and the highest 2% start at about 1.3. This is one part of a sample in which the highest values are shown more often than they occur.
PROPERTY_LABEL: pre-steady-state target cleavage rate

# RESIDUE_SEQUENCE, PROPERTY_LABEL, QUANTITATIVE_RESULT
measured = [
    ("AGGACCUACAGGUUGCAAAGUAUUUAGUUA", "pre-steady-state target cleavage rate", 0.0226),
    ("UGCACCUACAGCUUGCAUAGUAUUUACUUA", "pre-steady-state target cleavage rate", 0.0724),
    ("UGACCUACAGCUUGCAUAGUAUUUAGUUA", "pre-steady-state target cleavage rate", 0.0842),
    ("AGGACCUACAGCAUGCAUAGUAUUUAGUAA", "pre-steady-state target cleavage rate", 0.0556),
    ("UCCAGCUACAGCUUGCUUAGUAUUUAGUUA", "pre-steady-state target cleavage rate", 0.0235),
    ("UGGACCUACAGCAUGCAUAGUAUUUAGUAA", "pre-steady-state target cleavage rate", 0.0303),
    ("UGUGACCUACAGCUUGCAUAGUAUUUAGUUA", "pre-steady-state target cleavage rate", 0.0959),
    ("UCGACCUACAGGUUGCAUAGUAUUUAGUUA", "pre-steady-state target cleavage rate", 0.0468),
    ("UCGACCAACAGCUUGCAUAGUAUUUAGAUA", "pre-steady-state target cleavage rate", 0.0297),
    ("UGGACCUACAGCAUUGCAUAGUAUUUAGUUA", "pre-steady-state target cleavage rate", 0.0665),
    ("UCGACCAACAGCUUGCAUAGUAUUUAGUUA", "pre-steady-state target cleavage rate", 0.0825),
    ("UCCUGGAUGAGCUUGCAUAGUGUUUAGUUA", "pre-steady-state target cleavage rate", 0.0494),
    ("UGCACCAACAGCUUGCAUAGUAUUUAGUUA", "pre-steady-state target cleavage rate", 0.0613),
    ("UGGACCUACAGCAUGCAUAGUAUUUAGUUA", "pre-steady-state target cleavage rate", 0.0549),
    ("AGUGACCUACAGCUUGCAUAGUAUUUAGUUA", "pre-steady-state target cleavage rate", 0.0885),
    ("UCCACCUACAGGUUGCAAAGUAUUUAGUUA", "pre-steady-state target cleavage rate", 0.0166),
    ("UCCUGGAACAGUUGCAUAGUAUUUAGUUA", "pre-steady-state target cleavage rate", 0.00545),
    ("UCCUCCUACAGCUUACAUAGUAUUUAGUUA", "pre-steady-state target cleavage rate", 0.0275),
    ("UCCUGGUACAGAUUGCAUAGUAUUUAGUUA", "pre-steady-state target cleavage rate", 0.0178),
]
